# Test system: primary human hepatic stellate cells (donor 1)
# Assay summary: PSMB2 reference mRNA level vs DMSO (fold); higher = more PSMB2 expression
# Condition info: 48 h
Structures can show the parent of a compound that is named as a salt.
Classify by measured PSMB2 reference mRNA level: Criterion met if it is equal to or exceeds 0.5, Criterion not met if it is smaller.

Below, 10 compounds whose answers are already recorded.
CCCSc1ccc2[nH]c(NC(=O)OC)nc2c1 [Albendazole] (33.3333 µM)	Criterion met
CC(C)c1cc(-c2n[nH]c(=O)n2-c2ccc3c(ccn3C)c2)c(O)cc1O [Ganetespib (STA-9090)] (33.3333 µM)	Criterion not met
NC[C@@H]1O[C@H](C23CC4CC(CC(C4)C2)C3)Cc2c1ccc(O)c2O (33.3333 µM)	Criterion not met
CC#CCOC(=O)c1c(C)nc2sc3c(c2c1N)CCC(O)C3 (stereo not drawn) (33.3333 µM)	Criterion not met
Cc1cc(C(=O)Nc2cc(Nc3ccc4c(/C=C/c5ccccn5)n[nH]c4c3)ccc2F)n(C)n1 (33.3333 µM)	Criterion met
CNCCC(Oc1ccc(C(F)(F)F)cc1)c1ccccc1 (stereo not drawn) [Fluoxetine hydrochloride] (33.3333 µM)	Criterion not met
CCOC(=O)C1=C(COCCN)NC(C)=C(C(=O)OC)C1c1ccccc1Cl (stereo not drawn) (33.3333 µM)	Criterion met
CCC/C=C\C=C/C(=O)N[C@@H](CC(N)=O)C(=O)NC(CC(N)=O)C(=O)N[C@@H](C(=O)N[C@H](CCCN)C(=O)N[C@@H](C(=O)N[C@@H](C(=O)N[C@@H](C(=O)N[C@H](C(=O)N[C@@H](Cc1ccccc1)C(=O)N[C@H](CCCN)C(=O)NC(C(=O)N[C@H](C(=O)NC(C(=O)NCC(=O)N[C@@H](CC(C)C)C(=O)N[C@H](C)C(=O)NC(C(=O)O)C1CCC(O)C(Cl)C1)C1CCC(O)CC1)[C@H](C)O)C1CCC(O)CC1)[C@H](C)O)C1CCC(O)CC1)C1CCC(O)CC1)[C@H](C)O)C1CCC(O)CC1 (stereo partly drawn) (33.3333 µM)	Criterion not met
CCN(CC)CC#CCOC(=O)C(O)(c1ccccc1)C1CCCCC1 (stereo not drawn) [Oxybutynin chloride] (16.9333 µM)	Criterion met
COC(=O)N[C@H](C(=O)N1CCC[C@H]1c1ncc(-c2ccc(-c3ccc(-c4cnc([C@@H]5CCCN5C(=O)[C@@H](NC(=O)OC)C(C)C)[nH]4)cc3)cc2)[nH]1)C(C)C (33.3333 µM)	Criterion met

**Q:** In plain terms: is recorded PSMB2 reference mRNA level at least 0.5 for O=C1Nc2ccccc2/C1=C1/Nc2ccccc2C1=O [Indirubin] (63.5333 µM) ?
**A:** Criterion met

**Q:** In plain terms: is recorded PSMB2 reference mRNA level at least 0.5 for CNCc1ccc(C)c(NC(=O)c2ccc(Nc3nc(-c4ccccc4)c4ccccc4n3)cc2)c1 (33.3333 µM) ?
**A:** Criterion not met

---

Can you tell me ACTA2 mRNA fold change for the items I'm about to list?
# Test system: primary human hepatic stellate cells (donor 1)
# Assay summary: ACTA2 mRNA fold change vs DMSO (normalised to PSMB2); higher = more ACTA2 expression
# Condition info: 48 h
Where a name gives a salt, the structure may show the parent alone.
Numbers only.

CC[C@]1(O)C[C@@H]2CN(CCc3c([nH]c4ccccc34)[C@@](C(=O)OC)(c3cc4c(cc3OC)N(C)[C@H]3[C@@](O)(C(=O)OC)[C@H](OC(C)=O)[C@]5(CC)C=CCN6CC[C@]43[C@@H]65)C2)C1 [Vinblastine sulfate] (33.3333 µM)	0.02
CN(C)C/C=C(/c1ccc(Br)cc1)c1cccnc1 [Zimelidine dihydrochloride] (11.1 µM)	0.452

**Q:** I'd like to know its ACTA2 mRNA fold change. The molecule in question is CC(C)NCCCn1c(Sc2cc3c(cc2I)OCO3)nc2c(N)ncnc21 (33.3333 µM)
**A:** 1.26

---

# Test system: primary human hepatic stellate cells (donor 1)
# Assay summary: COL1A1 mRNA fold change vs DMSO (normalised to PSMB2); higher = more COL1A1 expression, active = hit call of the paper
# Condition info: 48 h
Counter-ions that a name gives are not always drawn.
Outcome measure: COL1A1 mRNA fold change
Answers are plain numbers.

Recorded results for 3 compounds are shown here.
O=C1Nc2ccccc2/C1=C1/Nc2ccccc2C1=O [Indirubin] (63.5333 µM)	0.897
CNc1nccc(-c2cccnc2Oc2cc(C(=O)Nc3cccc(C(F)(F)F)c3)ccc2C)n1 (33.3333 µM)	0.618
N=C(N)SCCc1ccc(OCc2ccc([N+](=O)[O-])cc2)cc1 [KB-R7943 mesylate] (33.3333 µM)	0.168

Below are 4 compounds. Give each one its COL1A1 mRNA fold change.
1. CCc1cc2c(cc1CC)CC(NC[C@H](O)c1ccc(O)c3[nH]c(=O)ccc13)C2 [Indacaterol Maleate] (33.3333 µM)
2. Cn1cc(CNCC2CCN(c3ncc(C(=O)NO)cn3)CC2)c2ccccc21 [Quisinostat] (33.3333 µM)
3. COc1ccccc1OCCNCC(O)COc1cccc2[nH]c3ccccc3c12 (stereo not given) [Carvedilol] (33.3333 µM)
4. Cc1ccc(-c2ccc3c(ccc4sc5c(c43)NC[C@@H](C)NC5=O)n2)cn1 (33.3333 µM)

**A:**
1: 0.0797; 2: 0.00578; 3: 0.294; 4: 1.21

---

# Tested on: primary human hepatic stellate cells (donor 1)
# Assay summary: ACTA2 mRNA fold change vs DMSO (normalised to PSMB2); higher = more ACTA2 expression
# Condition info: 48 h
Structures can show the parent of a compound that is named as a salt.
Classify by measured ACTA2 mRNA fold change: label 1 if it is equal to or exceeds 0.08, label 0 if it is smaller.

COc1cc2ncn(-c3cc(OCc4ccccc4C(F)(F)F)c(C(N)=O)s3)c2cc1OC (33.3333 µM)	label 1
COC(=O)N[C@H](C(=O)N1CCC[C@H]1c1ncc(-c2ccc(-c3ccc(-c4cnc([C@@H]5CCCN5C(=O)[C@@H](NC(=O)OC)C(C)C)[nH]4)cc3)cc2)[nH]1)C(C)C (33.3333 µM)	label 0
O=C(O[C@H]1CN2CCC1CC2)N1CCc2ccccc2[C@@H]1c1ccccc1 [Solifenacin succinate] (33.3333 µM)	label 1

**Q:** In plain terms: is recorded ACTA2 mRNA fold change at least 0.08 for C[C@@H](CN1CCC(n2c(=O)[nH]c3cc(Cl)ccc32)CC1)NC(=O)c1ccc2ccccc2c1 (33.3333 µM) ?
**A:** label 0

**Q:** In plain terms: is recorded ACTA2 mRNA fold change at least 0.08 for Cc1ccc(NC(=O)C(C)C)cc1C1CCN(Cc2ccc(Oc3ccc(F)c(F)c3)cc2)CC1 (33.3333 µM) ?
**A:** label 0

**Q:** In plain terms: is recorded ACTA2 mRNA fold change at least 0.08 for CCOC(=O)C1=C(COCCN)NC(C)=C(C(=O)OC)C1c1ccccc1Cl (centres undefined) (33.3333 µM) ?
**A:** label 1

**Q:** In plain terms: is recorded ACTA2 mRNA fold change at least 0.08 for Cc1ccc(-c2ccc3c(ccc4sc5c(c43)NC[C@@H](C)NC5=O)n2)cn1 (33.3333 µM) ?
**A:** label 1

**Q:** In plain terms: is recorded ACTA2 mRNA fold change at least 0.08 for CNCc1ccc(-c2[nH]c3cc(F)cc4c3c2CCNC4=O)cc1 (33.3333 µM) ?
**A:** label 1

**Q:** In plain terms: is recorded ACTA2 mRNA fold change at least 0.08 for Nc1ccc(C(=O)Nc2cccc(-c3nc(N4CCOCC4)c4oc5ncccc5c4n3)c2)cn1 (6.66667 µM) ?
**A:** label 1

**Q:** In plain terms: is recorded ACTA2 mRNA fold change at least 0.08 for C[C@H]1O[C@@H](O[C@H]2[C@@H](O)C[C@H](O[C@H]3[C@@H](O)C[C@H](O[C@H]4CC[C@@]5(C)[C@H](CC[C@@H]6[C@@H]5C[C@@H](O)[C@]5(C)[C@@H](C7=CC(=O)OC7)CC[C@]65O)C4)O[C@@H]3C)O[C@@H]2C)C[C@H](O)[C@@H]1O [Digoxin] (33.3333 µM) ?
**A:** label 0

**Q:** In plain terms: is recorded ACTA2 mRNA fold change at least 0.08 for Cn1cc(CNCC2CCN(c3ncc(C(=O)NO)cn3)CC2)c2ccccc21 [Quisinostat] (33.3333 µM) ?
**A:** label 0

**Q:** In plain terms: is recorded ACTA2 mRNA fold change at least 0.08 for CCN1CCC(n2cc(CNc3cc(Cl)c4ncc(C#N)c(Nc5ccc(F)c(Cl)c5)c4c3)nn2)CC1 (33.3333 µM) ?
**A:** label 0

**Q:** In plain terms: is recorded ACTA2 mRNA fold change at least 0.08 for CC(C)c1ccc(C(=O)c2cccs2)c(SCCCCCCCCN(C)C)n1 (33.3333 µM) ?
**A:** label 1

**Q:** In plain terms: is recorded ACTA2 mRNA fold change at least 0.08 for c1cc(OCCN2CCCCC2)cc(-c2n[nH]c3ccc(-c4nnc[nH]4)cc23)c1 (33.3333 µM) ?
**A:** label 0

**Q:** In plain terms: is recorded ACTA2 mRNA fold change at least 0.08 for CN1CCN(C2=Cc3ccccc3Oc3ccc(Cl)cc32)CC1 (33.3333 µM) ?
**A:** label 1

**Q:** In plain terms: is recorded ACTA2 mRNA fold change at least 0.08 for CCc1cc2c(cc1CC)CC(NC[C@H](O)c1ccc(O)c3[nH]c(=O)ccc13)C2 [Indacaterol Maleate] (33.3333 µM) ?
**A:** label 0

**Q:** In plain terms: is recorded ACTA2 mRNA fold change at least 0.08 for c1ccc2c(NCCCCCCCNc3c4c(nc5ccccc35)CCCC4)c3c(nc2c1)CCCC3 [bis(7)-Tacrine] (3.33333 µM) ?
**A:** label 0

**Q:** In plain terms: is recorded ACTA2 mRNA fold change at least 0.08 for Cc1cc(C(=O)Nc2cc(Nc3ccc4c(/C=C/c5ccccn5)n[nH]c4c3)ccc2F)n(C)n1 (33.3333 µM) ?
**A:** label 1

**Q:** In plain terms: is recorded ACTA2 mRNA fold change at least 0.08 for C[C@@H]1CN(CCCn2c3ccccc3c3ccccc32)C[C@H](C)N1 [Rimcazole dihydrochloride] (33.3333 µM) ?
**A:** label 0

Reference source: the supplement of paper PMC9135407
